- test name: Cell Viability - LYMP2-017 (AID 972);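 further: cells exposed to compound for 24 hours at 37 °C; nearly all actives have a fitted effect of over 55% in size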
- protocol conditions: LYMP2-017 lymphoblastoid cell viability; series mostly up to 92.2 µM
Records with an inconclusive call do not appear. Calls of active or inactive are those of the source. The call rests on the fitted dose curve; in most records, active means well fitted cell-killing curve with a large enough effect; inconclusive means small, poorly fitted or top-dose-only effect; inactive means flat fitted curve, though single readings scatter.
Outcome codes: active, inactive

compound	group
O=[N+]([O-])c1cccc(I)c1	inactive
c1ccc2c(c1)ccc1ccccc12	inactive
Nc1ccc(N=Nc2ccccc2)c(N)c1	inactive
Cc1ccc(N)cc1[N+](=O)[O-]	inactive
Oc1cc(Cl)cc(Cl)c1Cl	inactive
Nc1ccccc1O	inactive
CCOC(=O)C1OC1c1ccccc1 (stereo unspecified)	inactive
CCCCOC(=O)COc1ccc(Cl)cc1Cl	inactive
O=C(Cl)c1ccc([N+](=O)[O-])cc1	inactive
CC/C=C/C/C=C/C/C=C/CCCCCCCC(=O)OCC	active
CC(C)COC(=O)COc1cc(Cl)c(Cl)cc1Cl	inactive
Oc1ccc(O)c2c(O)cccc12	active
CCNC(=S)NCC	inactive
CC(CCC(=O)O)(c1ccc(O)cc1)c1ccc(O)cc1	inactive
CC(=O)CC(=O)Nc1ccccc1	inactive
O=C1c2ccccc2C(=O)C1(O)O	inactive
CC(=O)OCc1ccc2c(c1)OCO2	inactive
Cc1cc2nc(N)sc2cc1C	inactive
C=CC(C)(O)CCCC(C)CCCC(C)CCCC(C)C (stereo unspecified)	inactive
OC1CCCCC1	inactive
Brc1cc(Br)c(Oc2cc(Br)c(Br)cc2Br)cc1Br	inactive
C/C=C1/C(=O)C[C@H]2[C@@H]3CCC4=CC(=O)CC[C@]4(C)[C@H]3CC[C@]12C	active
C=CC1CO1 (stereo unspecified)	inactive
O=[N+]([O-])c1ccccc1Nc1ccccc1	inactive
CC(/C=C/C=C(C)/C=C/C(=O)O)=C\C=C\C=C(C)\C=C\C=C(C)\C=C\C(=O)O	inactive
COc1cc(-c2ccc(N=C=O)c(OC)c2)ccc1N=C=O	inactive
CCCC(=O)OC(=O)CCC	inactive
OCC(CBr)(CBr)CBr	inactive
Cc1cc(=O)oc2cc(O)cc(O)c12	inactive
O=C(O)/C=C/c1ccc(/C=C/C(=O)O)cc1	inactive
CC(C)OCC1CO1 (stereo unspecified)	inactive
Nc1ccc(N)c(Cl)c1	inactive
CCN(CC)c1ccc2c(C)cc(=O)oc2c1	inactive
Cc1ccc(O)c(N)c1	active
Oc1c(Cl)cc(Cl)c(Cl)c1Cl	inactive
CC(=O)Nc1cccc(C)c1	inactive
Cc1ccccc1OCC1CO1 (stereo unspecified)	inactive
N=C1C=CC(=C(c2ccc(N)cc2)c2ccc(N)cc2)C=C1	active
Brc1ccc(-c2ccccc2)cc1	inactive
CCCCCCCCOc1ccc(C(=O)O)cc1	inactive
NC(=O)Nc1nc2ccccc2[nH]1	inactive

---

- test name: qHTS assay for small molecule antagonists of retinoid X receptor alpha signaling (AID 588546);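 further: cells stimulated with 9-cis-retinoic acid as agonist; on the % scale 0 is the no-effect control and ±100 the full control effect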
- protocol conditions: HEK293T RXRa-UAS-bla, beta-lactamase ratio, antagonist mode; measured here: W530 green channel, cytotoxicity proxy
Results filed as inconclusive are left out.
Reported max response is given for each of the following compounds.
readout: max response (%)

structure smiles	readout	quantitative readout
NC(=O)Nc1nc2ccccc2[nH]1	max response	-1.95
Nc1ccc(N=Nc2ccccc2)c(N)c1	max response	-9.61
CC(=O)OCc1ccc2c(c1)OCO2	max response	8.84
NC(=O)c1ccc([N+](=O)[O-])cc1	max response	-6.07
c1ccc2ncccc2c1	max response	-0.528
Nc1ccccc1O	max response	21.2
CCCCCCc1ccc(-c2ccc(C#N)cc2)cc1	max response	-7.3
COc1ccc(C)cc1N	max response	-0.963

---

- test name: Stat Signaling Pathway (AID 446);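 further: ME-180 cervical cancer cells given 40 pM IL-6 alongside compound; SIE-controlled beta-lactamase reporter measured as 460/530 nm FRET emission ratio; on the % scale 0 is the no-effect control and ±100 the full control effect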
- protocol conditions: ME-180 (cervical carcinoma) SIE beta-lactamase reporter, IL-6 stimulated, 5 h; at 7.69 µM (top of the series) unless noted
Results filed as inconclusive are left out. Active and inactive are the calls of the source. Calls follow the shape of the dose curve; as a rule, active = well fitted curve in either direction with a large enough effect (not every such curve was filed as active); inconclusive = small, poorly fitted or top-dose-only effect, or another doubt; inactive = flat fitted curve, though single readings scatter.

compound	activity, negative = inhibition
CCOc1ccccc1Nc1ccc(N)cc1S(=O)(=O)O	-1.52% (inactive)
CN(C)Cc1cc(Cl)c(O)c(CN(C)C)c1	-1.91% (inactive)
Nc1c(S(=O)(=O)O)cc(S(=O)(=O)O)c2ccc(N=Nc3ccccc3)c(O)c12	-2.56% (inactive)
O=C1c2ccccc2C(=O)N1C1(C(=O)NC2(C(=O)O)CCCC2)CCCC1	0.797% (inactive)
O=S(=O)(O)[C@@H](CO)c1ccccc1 (tested in a mixture with another compound)	-7.29% (inactive)
Cc1ccc(S(=O)(=O)NC(=O)Nc2ncn[nH]2)cc1	0.243% (inactive)
c1ccc2sc(SCCSc3nc4ccccc4s3)nc2c1	2.32% (inactive)
NS(=O)(=O)c1nc(S(=O)(=O)O)c2[nH]cnc2n1	2.49% (inactive)
O=C(O)c1cc(-c2ccncc2)nc2ccccc12	-5.62% (inactive)
Cc1ccc(S(=O)(=O)O[C@@H]2[C@H]([C@@H]3COC(C)(C)O3)O[C@H]3OC(C)(C)O[C@@H]32)cc1	7.9% (inactive)
O=c1[nH]c(SCc2ccccc2[N+](=O)[O-])nc2nc[nH]c12	10.1% (inactive)
C[C@@H]1C[C@H](C)CN(S(=O)(=O)c2cc(Cl)c(Oc3ccc([N+](=O)[O-])cc3Cl)c(Cl)c2)C1	20.1% (inactive)
Cc1ccc(S(=O)(=O)N[C@H](CN)C(=O)O)cc1	8.31% (inactive)
COc1ccc(-n2c(=O)c(C)nc3cnc(Oc4cccc(Cl)c4)nc32)cc1	-10.9% (inactive)
Cc1ccc(N=Nc2ccc(N)cc2C)c(S(N)(=O)=O)c1	-6.29% (inactive)
C[C@@]12C[C@H](O)[C@@H]3[C@H](CCC4=CC(=O)CC[C@]43C)[C@H]1CC[C@@H]2c1csc(N)n1	-3.43% (inactive)
COc1cc([C@@H](O)CO)ccc1OS(=O)(=O)O	7.18% [at 38 µM] (inactive)
O=C(O)c1cncc(C(=O)O)c1	6.17% (inactive)
O=C(O)c1ccc(C(=O)O)c(C(=O)Nc2ccc3c(c2)Cc2ccccc2-3)c1	-0.756% (inactive)
NC(N)=NC[C@H](N)C(=O)O	0.308% (inactive)
O=C1c2ccccc2C(=O)c2c(Nc3cc4c5c(ccc6c7ccc8c9c(cc(Nc%10cccc%11c%10C(=O)c%10ccccc%10C%11=O)c(c3c56)c97)-c3ccccc3C8=O)C(=O)c3ccccc3-4)cccc21	11.5% (inactive)
Oc1ccc(CNCc2ccccc2)c2cccnc12	10.2% (inactive)
CC(=O)Nc1ccccc1C=C1c2ccccc2-c2ccccc21	-16.5% (inactive)
Cc1c(NC(=O)Nc2c(Cl)cccc2Cl)c(=O)n(-c2ccccc2)n1C	-1.35% (inactive)
O=c1[nH]c(=O)n([C@H]2C[C@H](O)[C@H](CO)O2)cc1Br	4.48% [at 38 µM] (inactive)
Cc1ncc(CN=Cc2ccc(Cl)cc2)c(N)n1	3.08% (inactive)
N=C1C=CC(=C(c2ccc(N)cc2)c2ccc(N)cc2)C=C1	-20.9% (inactive)
O=c1oc2cc(N=Cc3ccc4c(c3)OCO4)ccc2c2ccccc12	-1.72% (inactive)
NNC(=O)Cc1cccnc1	3.84% (inactive)
Cc1nc2cnc(OCc3ccccc3)nc2n(Cc2ccc(F)cc2)c1=O	-3.29% (inactive)
N/N=C1/c2ccccc2N[C@H]1OC(=O)Nc1cccc(Cl)c1	-0.394% (inactive)
O=C(O)c1nn(-c2ccccc2-c2n[nH]c(=O)[nH]c2=O)c(=O)[nH]c1=O	6.32% (inactive)
Clc1ccc(-c2nnc(-c3cccc4ccccc34)o2)cc1Cl	10.3% (inactive)
CCOC(=O)C1=C(C)NC(=O)N[C@@H]1c1coc2cc(C)cc(C)c2c1=O	-5.6% (inactive)
C=C(C)COc1ccc2c(c1)CCC1C2CC[C@]2(C)C(=O)/C(=N/O)CC12 (stereo partly drawn)	9.84% (inactive)
C/C(=N/NC(=O)c1ccncc1)c1ccccc1Cl	-2.05% (inactive)
O=C(O)[C@@H]1CS[C@@]2(CCCN(Cc3ccccc3)C2)N1	2.47% (inactive)
CCC(C)(C)c1ccc(Oc2cccc(C(=O)O)c2)cc1	-0.214% (inactive)
COC(=O)[C@@H]1O[C@@H](SCCN)[C@@H](O)[C@H](O)[C@H]1O	-0.339% (inactive)
O=[N+]([O-])c1cc(Cc2cc([N+](=O)[O-])c3cccnc3c2O)c(O)c2ncccc12	-1.87% (inactive)
CC(C)CN=C(N)N=C(N)N	1.4% (inactive)
[N-]=[N+]=Nc1ccc(C(=O)CSC[C@@H](NC(=O)CC[C@@H](N)C(=O)O)C(=O)NCC(=O)O)cc1	10.6% [at 38 µM] (inactive)
COc1ccc(CNc2ncnc3ccc(-c4ccccc4C#N)cc23)c(OC)c1	-15% (inactive)

---

- test target: Tumor necrosis factor (Homo sapiens)
- test name: qHTS assay to identify small molecules that stimulate Tumor Necrosis Factor-alpha (TNF-alpha) secretion (AID 651757)
- protocol conditions: Human cells, HTRF 665/615 ratio; series mostly up to 92.2 µM
Inconclusive results are not listed. Calls of active or inactive are those of the source. Calls come from the whole dose curve; as a rule, active = well fitted curve in the direction sought with a large enough effect in the signal ratio; inconclusive = small, poorly fitted or top-dose-only effect, or a change in a side signal; inactive = no such curve, though single readings can be large or run the other way; the % refers to the signal ratio.
Outcome codes: 1 (yes) = active, 0 (no) = inactive

compound	test target	group
C=CC(=O)OCCCCCCOC(=O)C=C	Tumor necrosis factor (Homo sapiens)	0 (no)
CCCCC(CC)COP(=O)(OCC(CC)CCCC)OCC(CC)CCCC (configuration not stated)	Tumor necrosis factor (Homo sapiens)	0 (no)
OCC(CBr)(CBr)CBr	Tumor necrosis factor (Homo sapiens)	0 (no)
CC(=O)c1ccc(Cl)c(Cl)c1Cl	Tumor necrosis factor (Homo sapiens)	0 (no)
Cc1cccnc1	Tumor necrosis factor (Homo sapiens)	0 (no)
CCc1ccc(C(c2ccc(CC)cc2)C(Cl)Cl)cc1	Tumor necrosis factor (Homo sapiens)	0 (no)
O=C(O)c1ccc([N+](=O)[O-])cc1	Tumor necrosis factor (Homo sapiens)	0 (no)
c1ccc(COCc2ccccc2)cc1	Tumor necrosis factor (Homo sapiens)	0 (no)
CC/C=C/C/C=C/C/C=C/CCCCCCCC(=O)OCC	Tumor necrosis factor (Homo sapiens)	0 (no)
OC1CCCCC1	Tumor necrosis factor (Homo sapiens)	0 (no)
C[Si](C)(C)Cl	Tumor necrosis factor (Homo sapiens)	0 (no)
CCCCCCc1ccc(-c2ccc(C#N)cc2)cc1	Tumor necrosis factor (Homo sapiens)	0 (no)
O=CC(=O)c1ccccc1	Tumor necrosis factor (Homo sapiens)	0 (no)
c1ccc(Nc2cccc3ccccc23)cc1	Tumor necrosis factor (Homo sapiens)	0 (no)
Oc1ccc2c(c1)OCO2	Tumor necrosis factor (Homo sapiens)	0 (no)
Cc1cc(=O)oc2cc(O)cc(O)c12	Tumor necrosis factor (Homo sapiens)	1 (yes)
CC(=O)OC1CC(C)OC(C)O1 (configuration not stated)	Tumor necrosis factor (Homo sapiens)	0 (no)
C=C(C#N)C(=O)OCC	Tumor necrosis factor (Homo sapiens)	0 (no)
C=CC1CO1 (configuration not stated)	Tumor necrosis factor (Homo sapiens)	0 (no)
CCCCOC(=O)COc1ccc(Cl)cc1Cl	Tumor necrosis factor (Homo sapiens)	0 (no)
Cc1c(N)cccc1Cl	Tumor necrosis factor (Homo sapiens)	0 (no)
CCCCNCC	Tumor necrosis factor (Homo sapiens)	0 (no)
CC1=C(/C=C/C(C)=C/C=C/C(C)=C/C=O)C(C)(C)CCC1	Tumor necrosis factor (Homo sapiens)	0 (no)
CC(C)S	Tumor necrosis factor (Homo sapiens)	0 (no)
Cc1c2ccccc2c(C)c2c1ccc1ccccc12	Tumor necrosis factor (Homo sapiens)	0 (no)
Cc1cc2nc(N)sc2cc1C	Tumor necrosis factor (Homo sapiens)	0 (no)
CCCC(=O)OC(=O)CCC	Tumor necrosis factor (Homo sapiens)	0 (no)

Values were extracted from PubChem BioAssay (NCATS).
